target: D(3) dopamine receptor (Homo sapiens); experiment: Binding affinity towards human cloned Dopamine D3 receptor in CHO cells by [3H]spiperone displacement.
Sequence (P35462 whole entry): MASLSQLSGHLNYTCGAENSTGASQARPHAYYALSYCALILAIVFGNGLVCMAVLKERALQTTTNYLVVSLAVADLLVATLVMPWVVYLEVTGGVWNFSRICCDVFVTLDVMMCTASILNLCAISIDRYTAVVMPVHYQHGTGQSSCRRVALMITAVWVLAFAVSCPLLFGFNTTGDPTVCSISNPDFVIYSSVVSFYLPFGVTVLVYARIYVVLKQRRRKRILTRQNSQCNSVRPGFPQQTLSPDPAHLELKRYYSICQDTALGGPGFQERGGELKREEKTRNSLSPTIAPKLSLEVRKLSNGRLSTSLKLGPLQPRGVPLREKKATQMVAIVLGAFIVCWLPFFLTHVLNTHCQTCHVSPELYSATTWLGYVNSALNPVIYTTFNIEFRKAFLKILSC
pKi: −log10 of the molar value.
ASSAY ENDPOINT: pKi

Field: example entries. Status: answers known.
CCN(CC)CCCOc1ccc(-c2nc3ccccc3n2C/C=C/Cn2c(-c3ccc(OCCCN4CCN(c5ccccc5)CC4)cc3)nc3ccccc32)cc1 :: 7.72
C(=C\Cn1c(-c2ccc(OCCCN3CCCC3)cc2)nc2ccccc21)/Cn1c(-c2ccc(OCCCN3CCCC3)cc2)nc2ccccc21 :: 8.05

(a) CN(C)CCCOc1ccc(-c2nc3ccccc3n2C/C=C/Cn2c(-c3ccc(OCCCN(C)C)cc3)nc3ccccc32)cc1
(b) CCN(CC)CCCOc1ccc(-c2nc3ccccc3n2C/C=C/Cn2c(C)nc3ccccc32)cc1
Could you tell me which of a and b has the lower pKi reading? Select an item and report its label.
b
(b: 5.92, a: 6.84)

(P) CCN(CC)CCCOc1ccc(-c2nc3ccccc3n2C/C=C/Cn2c(-c3ccccc3)nc3ccccc32)cc1
(Q) C(=C\Cn1c(-c2ccc(OCCCN3CCCCC3)cc2)nc2ccccc21)/Cn1c(-c2ccc(OCCCN3CCCCC3)cc2)nc2ccccc21
(R) CCN(CC)CCCOc1ccc(-c2nc3ccccc3n2C/C=C/Cn2c(-c3ccc(OCCCN(CC)CC)cc3)nc3ccccc32)cc1
Sort the molecules on pKi; start with the lowest figure. # answer = labels listed in requested order
P, R, Q
